target: SIRT1 (Homo sapiens, UniProt Q96EB6); construct: His-tag (N); made in house; host or cells: E. coli BL21(DE3), T7-promoter vector; test: Mass spectrometry based assay for modulators of SIRT1 activity (deacetylation of p53-based acetylated peptide); assay type: biochemical; details: concentration of test compound that results in 150% activation of SIRT1; 0.5 μM peptide substrate, 120 μM βNAD+, 10 nM SIRT1, 25 min, 25° C.
Sequence (Q96EB6 whole entry): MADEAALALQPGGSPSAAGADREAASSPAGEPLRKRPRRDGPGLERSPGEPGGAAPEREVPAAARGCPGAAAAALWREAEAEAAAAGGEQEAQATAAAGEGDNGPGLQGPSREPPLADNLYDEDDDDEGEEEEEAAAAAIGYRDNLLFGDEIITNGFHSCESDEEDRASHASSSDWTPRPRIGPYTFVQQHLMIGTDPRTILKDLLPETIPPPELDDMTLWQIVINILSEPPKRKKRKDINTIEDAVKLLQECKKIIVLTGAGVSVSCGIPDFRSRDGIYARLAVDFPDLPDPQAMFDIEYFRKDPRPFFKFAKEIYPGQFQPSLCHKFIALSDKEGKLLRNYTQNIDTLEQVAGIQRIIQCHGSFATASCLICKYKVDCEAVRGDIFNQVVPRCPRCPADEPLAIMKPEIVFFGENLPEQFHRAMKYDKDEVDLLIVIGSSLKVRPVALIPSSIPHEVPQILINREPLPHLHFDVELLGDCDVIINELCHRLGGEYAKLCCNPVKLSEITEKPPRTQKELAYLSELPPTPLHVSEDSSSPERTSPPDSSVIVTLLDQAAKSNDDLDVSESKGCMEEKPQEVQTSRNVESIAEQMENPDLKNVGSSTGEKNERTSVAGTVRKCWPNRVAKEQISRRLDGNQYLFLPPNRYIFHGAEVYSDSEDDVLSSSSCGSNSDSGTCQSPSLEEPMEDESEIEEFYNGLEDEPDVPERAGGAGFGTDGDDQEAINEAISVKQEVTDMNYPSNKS
quantity: EC1.5

# compoundStructureString, measuredOn, endpointResult
data = [
    ("O=C(Nc1cccc(CN2CCOCC2)n1)c1cccn2cc(-c3ccc(F)cc3F)nc12", "SIRT1 (Homo sapiens, UniProt Q96EB6)", "B (EC1.5 1-25 uM)"),
    ("O=C(Nc1nccs1)c1cccn2nc(-c3cccc(N4CCOCC4)c3)nc12", "SIRT1 (Homo sapiens, UniProt Q96EB6)", "B (EC1.5 1-25 uM)"),
    ("O=C(NC1CCCC1)c1cccn2cc(-c3ccccc3)nc12", "SIRT1 (Homo sapiens, UniProt Q96EB6)", "C (EC1.5>25 uM)"),
    ("O=C(Nc1ccccn1)c1cccn2cc(-c3ccc(CN4CCOCC4)cc3)nc12", "SIRT1 (Homo sapiens, UniProt Q96EB6)", "B (EC1.5 1-25 uM)"),
    ("O=C(Nc1nccs1)c1cccn2cc(-c3cccc(C(F)(F)F)c3)nc12", "SIRT1 (Homo sapiens, UniProt Q96EB6)", "C (EC1.5>25 uM)"),
    ("O=C(Nc1nccs1)c1cccn2cc(-c3ccc(N4CCCC4)cc3)nc12", "SIRT1 (Homo sapiens, UniProt Q96EB6)", "C (EC1.5>25 uM)"),
    ("Cc1cc(-c2nc3c(C(=O)Nc4nccs4)cccn3n2)ccn1", "SIRT1 (Homo sapiens, UniProt Q96EB6)", "B (EC1.5 1-25 uM)"),
    ("Cc1ccc(-c2nc3c(C(=O)Nc4cccc(CN5CCOCC5)n4)cccn3n2)cn1", "SIRT1 (Homo sapiens, UniProt Q96EB6)", "B (EC1.5 1-25 uM)"),
]
